Data credit: patent US8541585B2

For each of the compounds below, state its inhibition at 0.001 µM.
Molecular target: human 5-HT2A receptor (Homo sapiens, UniProt P28223)
Construct: expressed in transfected cells; host or cells: CHO cells (membrane preparation)
Sequence (P28223 whole entry): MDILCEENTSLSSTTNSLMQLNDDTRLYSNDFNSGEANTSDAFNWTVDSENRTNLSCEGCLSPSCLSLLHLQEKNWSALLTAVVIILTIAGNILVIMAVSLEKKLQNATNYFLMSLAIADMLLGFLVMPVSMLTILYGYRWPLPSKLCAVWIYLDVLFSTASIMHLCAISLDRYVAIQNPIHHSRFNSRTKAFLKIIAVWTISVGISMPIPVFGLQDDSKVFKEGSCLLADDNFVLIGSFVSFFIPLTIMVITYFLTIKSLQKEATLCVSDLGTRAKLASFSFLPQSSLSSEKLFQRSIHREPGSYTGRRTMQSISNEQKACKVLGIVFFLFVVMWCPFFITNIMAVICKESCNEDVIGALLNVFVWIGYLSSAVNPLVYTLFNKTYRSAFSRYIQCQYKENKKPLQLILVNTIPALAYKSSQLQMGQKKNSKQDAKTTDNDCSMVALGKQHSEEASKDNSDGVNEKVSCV
Test: Serotonin 5-HT2A receptor binding assay ([3H]-ketanserin)
Settings: 1 nM test drug; [3H]-ketanserin 1 nM; human 5-HT2A receptor-expressing CHO cell membrane; read-out: BINDING INHIBITION RATE (%) 5HT2A 1 nM
One number for each entry, in %.

INSERT INTO results (compound, measured_number) VALUES
  ('Cc1ccc2cc(C(=O)N3CCC[C@H]3CCN3CCN(c4nccc5ccccc45)CC3)[nH]c2c1', 64);

// batch mode: one inhibition at 0.001 µM value per listed entry
1. N#Cc1ccc2[nH]c(C(=O)N3CCC[C@H]3CCN3CCC(C(=O)c4ccc(F)cc4)CC3)cc2c1
2. Cc1ccc2cc(C(=O)N3CCC[C@H]3CCN3CCN(c4n[nH]c5ccccc45)CC3)[nH]c2c1
3. O=C(c1ccc(F)cc1)C1CCN(CC[C@@H]2CCCN2C(=O)c2cc3ccc(F)cc3[nH]2)CC1
4. Cc1ccc2cc(C(=O)N3CCOCCC3CCN3CCC(c4c[nH]c5ccccc45)CC3)[nH]c2c1 (stereo not shown)
5. Cc1ccc2cc(C(=O)N3CCC[C@H]3CCN3CCC(N4CCCc5ccccc54)CC3)[nH]c2c1
6. COc1c(F)ccc2[nH]c(C(=O)N3CCC[C@H]3CCN3CCC(C(=O)c4ccc(F)cc4)CC3)cc12

[70, 65, 78, 77, 28, 84]

###

Molecular target: human D2L receptor (Homo sapiens, UniProt P14416)
Sequence (P14416 whole entry): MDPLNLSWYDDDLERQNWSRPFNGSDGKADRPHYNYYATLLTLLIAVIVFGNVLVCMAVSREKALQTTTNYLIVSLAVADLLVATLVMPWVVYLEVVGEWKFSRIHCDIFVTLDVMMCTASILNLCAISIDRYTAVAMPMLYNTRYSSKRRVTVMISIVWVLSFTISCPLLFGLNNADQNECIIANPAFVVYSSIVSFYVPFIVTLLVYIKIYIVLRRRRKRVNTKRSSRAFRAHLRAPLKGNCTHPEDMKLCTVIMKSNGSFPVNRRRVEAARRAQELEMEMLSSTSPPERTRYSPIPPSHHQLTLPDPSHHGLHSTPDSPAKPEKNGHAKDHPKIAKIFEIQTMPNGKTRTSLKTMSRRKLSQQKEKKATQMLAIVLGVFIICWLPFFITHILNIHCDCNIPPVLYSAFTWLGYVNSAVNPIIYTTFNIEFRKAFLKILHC
Test: Dopamine D2L receptor binding assay ([3H]-spiperone)
Conditions: 10 nM test drug; [3H]-spiperone 0.5 nM; human D2L receptor-expressing CHO cell membrane; read-out: BINDING INHIBITION RATE (%) D2L 10 nM
Could you label it 1.0 if measured inhibition at 0.01 µM is 80% or higher, and 0.0 otherwise?

Solved cases below.
INSERT INTO results (cpd_smiles, group) VALUES
  ('Cc1ccc2cc(C(=O)N3CCC[C@H]3CCN3CCC(n4ccc5ccc(F)cc54)CC3)[nH]c2c1', 0.0),
  ('O=C(c1ccc(F)cc1)C1CCN(CC[C@@H]2CCCN2C(=O)c2[nH]c3ccccc3c2F)CC1', 1.0),
  ('O=C(/C=C/c1ccc2c(c1)OCO2)N1CCC[C@H](CN2CCC(c3c[nH]c4ccccc34)CC2)C1', 0.0),
  ('O=C(c1ccc(F)cc1)C1CCN(CC[C@@H]2CCCN2C(=O)c2[nH]c3ccccc3c2C(=O)N2CCCCC2)CC1', 0.0),
  ('O=C(/C=C/c1ccc2c(c1)OCO2)N1CC[C@H]1CCN1CCC(c2noc3cc(F)ccc23)CC1', 0.0);

Now consider the entry below.
Can "O=C(c1ccc(F)cc1)C1CCN(CC[C@@H]2CCCN2C(=O)c2[nH]c3cc(F)ccc3c2F)CC1" be said to have inhibition at 0.01 µM at or above 80%?
1.0

###

Biological target: human α1D receptor (Homo sapiens, UniProt P25100)
Construct: expressed in transfected cells; host or cells: CHO cells (membrane preparation)
Sequence (P25100 whole entry): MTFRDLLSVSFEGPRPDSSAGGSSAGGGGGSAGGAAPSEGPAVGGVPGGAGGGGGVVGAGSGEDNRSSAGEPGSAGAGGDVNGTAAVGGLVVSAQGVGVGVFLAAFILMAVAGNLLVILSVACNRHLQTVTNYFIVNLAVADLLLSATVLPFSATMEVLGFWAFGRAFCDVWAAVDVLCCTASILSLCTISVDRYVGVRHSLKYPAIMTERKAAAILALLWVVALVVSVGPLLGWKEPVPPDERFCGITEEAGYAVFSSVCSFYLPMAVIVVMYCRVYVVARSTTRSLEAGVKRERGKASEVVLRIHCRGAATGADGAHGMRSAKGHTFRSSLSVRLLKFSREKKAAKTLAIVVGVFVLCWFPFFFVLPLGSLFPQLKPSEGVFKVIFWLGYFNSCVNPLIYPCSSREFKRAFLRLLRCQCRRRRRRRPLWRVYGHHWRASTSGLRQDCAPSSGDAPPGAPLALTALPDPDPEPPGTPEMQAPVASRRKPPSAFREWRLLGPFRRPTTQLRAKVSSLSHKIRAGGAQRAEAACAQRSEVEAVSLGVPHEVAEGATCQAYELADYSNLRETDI
Assay: Adrenaline α1D receptor binding assay ([3H]-prazosin)
Conditions: 100 nM test drug; [3H]-prazosin 0.6 nM; human α1D receptor-expressing CHO cell membrane; read-out: BINDING INHIBITION RATE (%) α1D 100 nM
Classification by inhibition at 0.1 µM follows these ranges: zone 1 = under 60%, zone 2 = from 60% up to 70%, zone 3 = 70% and over

Solved cases below.
INSERT INTO measurements (compound, group) VALUES
  ('O=C(c1cc2cc(F)ccc2[nH]1)N1CCOC[C@H]1CCN1CCC(c2c[nH]c3ccccc23)CC1', 'zone 3'),
  ('O=C(c1ccc(F)cc1)C1CCN(CC[C@@H]2CCCN2C(=O)c2[nH]c3cc(OC(F)(F)F)ccc3c2F)CC1', 'zone 1'),
  ('O=C(c1ccc(F)cc1)C1CCN(CC[C@@H]2CCCN2C(=O)c2cc3ccccc3n2-c2ccncc2)CC1', 'zone 1');

Hey, which category is "COc1ccc2[nH]c(C(=O)N3C[C@@](C)(O)C[C@H]3CCN3CCC(c4c[nH]c5ccccc45)CC3)cc2c1" in, do you know?
zone 2

Ok, now "COc1ccc2[nH]c(C(=O)N3CCCC[C@H]3CCN3CCC(c4coc5ccccc45)CC3)cc2c1"
zone 2

Ok, now "Cc1ccc2cc(C(=O)N3[C@H](CCN4CCC(C(=O)c5ccc(F)cc5)CC4)CC[C@@H]3C)[nH]c2c1"
zone 2

Ok, now Cc1ccc2cc(C(=O)N3CCOCCC3CCN3CCC(c4c[nH]c5ccccc45)CC3)[nH]c2c1 (stereo not drawn)
zone 3

Ok, now "O=C(c1ccc(F)cc1)C1CCN(CC[C@@H]2CCCN2C(=O)c2cc3c(F)cccc3[nH]2)CC1"
zone 1

Ok, now "Cc1ccc2[nH]c(C(=O)N3CCC[C@H]3CCN3CCC(c4coc5ccccc45)CC3)cc2c1"
zone 2

Ok, now "O=C(/C=C/c1ccc2c(c1)OCO2)N1CCC[C@H](CN2CCC(c3coc4ccccc34)CC2)C1"
zone 3

Ok, now "COc1ccc2cc(C(=O)N3C[C@H](O)C[C@H]3CCN3CCC(c4c[nH]c5ccccc45)CC3)[nH]c2c1"
zone 3

###

Target: human 5-HT6 receptor (Homo sapiens, UniProt P50406)
Construct: expressed in transfected cells; host or cells: CHO cells (membrane preparation)
Sequence (P50406 whole entry): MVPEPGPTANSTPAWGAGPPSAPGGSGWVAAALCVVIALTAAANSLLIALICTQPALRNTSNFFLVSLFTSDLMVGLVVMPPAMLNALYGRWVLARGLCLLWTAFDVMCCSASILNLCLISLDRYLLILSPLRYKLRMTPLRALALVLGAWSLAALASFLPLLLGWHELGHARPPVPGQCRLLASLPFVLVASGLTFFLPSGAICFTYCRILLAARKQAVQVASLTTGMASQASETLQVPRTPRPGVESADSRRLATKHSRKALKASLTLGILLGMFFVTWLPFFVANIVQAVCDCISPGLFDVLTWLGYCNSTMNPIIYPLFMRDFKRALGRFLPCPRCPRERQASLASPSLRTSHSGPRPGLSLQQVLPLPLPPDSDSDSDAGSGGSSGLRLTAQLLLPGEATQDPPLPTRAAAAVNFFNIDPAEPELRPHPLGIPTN
Assay: Serotonin 5-HT6 receptor binding assay ([3H]-clozapine)
Conditions: 100 nM test drug; [3H]-clozapine 2 nM; human 5-HT6 receptor-expressing CHO cell membrane; read-out: BINDING INHIBITION RATE (%) 5HT6 100 nM
Could you label it met if measured inhibition at 0.1 µM is 90% or higher, and not met otherwise?

Can "Cc1ccc2cc(C(=O)N3CCCC[C@H]3CCN3CCN(c4n[nH]c5ccccc45)CC3)[nH]c2c1" be said to have inhibition at 0.1 µM at or above 90%?
not met

Ok, now "Cc1ccc2cc(C(=O)N3CCC[C@H]3CCN3CCN(c4nccc5ccccc45)CC3)[nH]c2c1"
not met

Ok, now "O=C(c1cc2ccc(F)cc2[nH]1)N1CCC[C@H](CN2CCN(c3n[nH]c4ccccc34)CC2)C1"
not met

Ok, now "COc1ccc2[nH]c(C(=O)N3CCC[C@H]3CCN3CCC(c4cn(-c5ccc(F)cc5)c5ccc(Cl)cc45)CC3)cc2c1"
met

Ok, now "O=C(c1ccc(F)cc1)C1CCN(CC[C@@H]2CCCN2C(=O)c2cc3ccc(OC(F)(F)F)cc3[nH]2)CC1"
met

###

Molecular target: human α1D receptor (Homo sapiens)
Construct: expressed in transfected cells; host or cells: CHO cells (membrane preparation)
Assay: Adrenaline α1D receptor binding assay ([3H]-prazosin)
Settings: 100 nM test drug; [3H]-prazosin 0.6 nM; human α1D receptor-expressing CHO cell membrane; read-out: BINDING INHIBITION RATE (%) α1D 100 nM
READOUT_NAME: inhibition at 0.1 µM (%)
Give bare numbers, in %.

For orientation, consider the following solved cases.
INSERT INTO results (cpd_smiles, units_label, measured_number) VALUES
  ('COc1ccc2cc(C(=O)N3CC[C@H]3CCN3CCC(c4c[nH]c5ccccc45)CC3)[nH]c2c1', '%', 68),
  ('O=C(/C=C/c1ccc2c(c1)OCO2)N1CCC[C@@H](CN2CCC(c3noc4cc(F)ccc34)CC2)C1', '%', 91),
  ('O=C(c1cc2cc(O)ccc2[nH]1)N1CCOC[C@H]1CCN1CCC(c2c[nH]c3ccccc23)CC1', '%', 81),
  ('Cc1ccc2cc(C(=O)N3CCC[C@H]3CCN3CCN(c4nsc5cc(F)ccc45)CC3)[nH]c2c1', '%', 60);

// batch mode: one inhibition at 0.1 µM value per listed entry
1. O=C(c1ccc(F)cc1)C1CCN(C[C@H]2CCCN(C(=O)c3cc4ccc(Cl)cc4[nH]3)C2)CC1
2. Cc1ccc2[nH]c(C(=O)N3CCOC[C@H]3CCN3CCC(c4coc5ccccc45)CC3)cc2c1
3. O=C(/C=C/c1ccc2c(c1)OCO2)N1CCC[C@@H](CCN2CCN(c3nsc4ccccc34)CC2)C1
4. Cc1ccc2cc(C(=O)N3CCCC[C@H]3CCN3CCN(c4n[nH]c5ccccc45)CC3)[nH]c2c1

1. 46
2. 97
3. 30
4. 34

// batch mode: one inhibition at 0.1 µM value per listed entry
1. O=C(c1ccc(F)cc1)C1CCN(CC[C@@H]2CCCN2C(=O)c2[nH]c3ccccc3c2C(=O)N2CCCCC2)CC1
2. Cc1ccc2nc(C(=O)N3CCC[C@H]3CCN3CCC(C(=O)c4ccc(F)cc4)CC3)[nH]c2c1
3. O=C(c1ccc(F)cc1)C1CCN(CC[C@@H]2CCCN2C(=O)c2cc3ccccc3n2C2CCOCC2)CC1
4. O=C(c1ccc(F)cc1)C1CCN(CC[C@@H]2CCCN2C(=O)c2[nH]c3ccccc3c2F)CC1

1: 63; 2: 95; 3: 40; 4: 53

// batch mode: one inhibition at 0.1 µM value per listed entry
1. C[C@H]1CC[C@@H](CCN2CCC(C(=O)c3ccc(F)cc3)CC2)N1C(=O)c1cc2ccc(C(F)(F)F)cc2[nH]1
2. O=C(/C=C/c1ccc2c(c1)OCO2)N1CCCC[C@H]1CCN1CCN(c2cccc3ccccc23)CC1
3. COc1c(F)ccc2[nH]c(C(=O)N3CCC[C@H]3CCN3CCC(C(=O)c4ccc(F)cc4)CC3)cc12
4. Cc1ccc2cc(C(=O)N3CCC[C@H]3CCN3CCC(n4ccc5ccc(F)cc54)CC3)[nH]c2c1
5. CCNC(=O)O[C@@H]1C[C@@H](CCN2CCC(c3c[nH]c4ccccc34)CC2)N(C(=O)c2cc3cc(OC)ccc3[nH]2)C1
6. O=C(c1ccc(F)cc1)C1CCN(CC[C@@H]2CCCN2C(=O)c2[nH]c3ccccc3c2-c2ccccc2)CC1
7. Cc1ccc2cc(C(=O)N3CCC[C@H]3CCN3CCN(c4noc5cc(F)ccc45)CC3)[nH]c2c1

33
5
79
12
75
85
55

// batch mode: one inhibition at 0.1 µM value per listed entry
1. Cc1ccc2cc(C(=O)N3CCC[C@H]3CCN3CCN(c4n[nH]c5ccccc45)CC3)[nH]c2c1
2. Cc1ccc2cc(C(=O)N3C[C@H](F)C[C@H]3CCN3CCC(C(=O)c4ccc(F)cc4)CC3)[nH]c2c1
3. Cc1ccc2cc(C(=O)N3CCC[C@H]3CCN3CCN(c4n[nH]c5cc(F)ccc45)CC3)[nH]c2c1

1: 63; 2: 48; 3: 64

Consider the molecule "COc1ccc2[nH]c(C(=O)N3CCC[C@H]3CCN3CCC(c4cn(-c5ccc(F)cc5)c5ccc(Cl)cc45)CC3)cc2c1" and give its measured inhibition at 0.1 µM.
76
